biological target: CYP2C19 (Homo sapiens, UniProt P33261); experiment: Inhibition of human CYP2C19 expressed in baculovirus-infected insect cells at 10 uM using Luciferin-H EGE as substrate in presence of NADPH by P450-Glo luminescence assay relative to control; format: ADME; conditions: probe Luciferin-H EGE
Sequence (P33261 whole entry): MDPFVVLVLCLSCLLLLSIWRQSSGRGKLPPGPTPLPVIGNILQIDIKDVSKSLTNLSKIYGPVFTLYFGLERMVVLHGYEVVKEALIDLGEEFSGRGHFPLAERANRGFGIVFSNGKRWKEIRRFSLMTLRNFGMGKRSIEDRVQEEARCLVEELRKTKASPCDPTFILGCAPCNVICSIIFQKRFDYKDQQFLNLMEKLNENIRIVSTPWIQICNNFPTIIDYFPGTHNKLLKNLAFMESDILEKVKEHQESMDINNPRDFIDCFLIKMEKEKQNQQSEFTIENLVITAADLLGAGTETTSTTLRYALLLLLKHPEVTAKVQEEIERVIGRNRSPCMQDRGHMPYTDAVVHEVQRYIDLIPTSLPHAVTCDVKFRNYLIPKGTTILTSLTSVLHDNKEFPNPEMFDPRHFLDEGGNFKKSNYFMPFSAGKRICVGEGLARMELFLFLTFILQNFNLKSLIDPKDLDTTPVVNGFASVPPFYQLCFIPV
Assign true (1) whenever inhibition at 10 µM does not fall below 70%; assign false (0) whenever it does.

Completed entries (count: 5):
>>> print(df.to_string())
                              sample_smiles                            assay_target  category_label
0       COc1ccc(/C=C/C(=O)c2ccc(OC)cc2O)cc1  CYP2C19 (Homo sapiens, UniProt P33261)       false (0)
1  COc1ccc(O)c(C(=O)/C=C/c2ccc(OC)c(OC)c2)c1  CYP2C19 (Homo sapiens, UniProt P33261)       false (0)
2       COc1ccc(/C=C/C(=O)c2cc(OC)ccc2O)cc1  CYP2C19 (Homo sapiens, UniProt P33261)       false (0)
3  COc1cc(O)c(C(=O)/C=C/c2cc(OC)c(OC)c(OC)c2)cc1OC  CYP2C19 (Homo sapiens, UniProt P33261)        true (1)
4  COc1ccc(C(=O)/C=C/c2ccc(OC)c(OC)c2)c(O)c1  CYP2C19 (Homo sapiens, UniProt P33261)       false (0)

**Q:** Dear colleague, could you confirm whether COc1cccc(/C=C/C(=O)c2ccc(OC)cc2O)c1 has inhibition at 10 µM at or above 70%?
**A:** false (0)

**Q:** Dear colleague, could you confirm whether COc1ccc(O)c(C(=O)/C=C/c2cc(OC)c(OC)c(OC)c2)c1 has inhibition at 10 µM at or above 70%?
**A:** true (1)

**Q:** Dear colleague, could you confirm whether COc1ccc(C(=O)/C=C/c2cc(OC)c(OC)c(OC)c2)c(O)c1 has inhibition at 10 µM at or above 70%?
**A:** false (0)

**Q:** Dear colleague, could you confirm whether COc1cccc(/C=C/C(=O)c2ccccc2O)c1 has inhibition at 10 µM at or above 70%?
**A:** true (1)

**Q:** Dear colleague, could you confirm whether COc1ccc(O)c(C(=O)/C=C/c2c(OC)cccc2OC)c1 has inhibition at 10 µM at or above 70%?
**A:** false (0)

**Q:** Dear colleague, could you confirm whether COc1cccc(/C=C/C(=O)c2cc(OC)c(OC)cc2O)c1 has inhibition at 10 µM at or above 70%?
**A:** false (0)

**Q:** Dear colleague, could you confirm whether COc1ccc(C(=O)/C=C/c2c(OC)cccc2OC)c(O)c1 has inhibition at 10 µM at or above 70%?
**A:** true (1)

###

List of inhibition at 1 h, 10 µM values.
biological target: Aurora kinase B (Homo sapiens, UniProt Q96GD4); assay: Inhibition of N-terminal-GST-tagged recombinant full length human Aurora B expressed in baculovirus infected Sf9 cells at 10 uM using native Swine Myelin Basic Protein as substrate measured after 60 mins by ADP-Glo assay relative to control; details: probe native Swine Myelin Basic Protein
Sequence (Q96GD4 whole entry): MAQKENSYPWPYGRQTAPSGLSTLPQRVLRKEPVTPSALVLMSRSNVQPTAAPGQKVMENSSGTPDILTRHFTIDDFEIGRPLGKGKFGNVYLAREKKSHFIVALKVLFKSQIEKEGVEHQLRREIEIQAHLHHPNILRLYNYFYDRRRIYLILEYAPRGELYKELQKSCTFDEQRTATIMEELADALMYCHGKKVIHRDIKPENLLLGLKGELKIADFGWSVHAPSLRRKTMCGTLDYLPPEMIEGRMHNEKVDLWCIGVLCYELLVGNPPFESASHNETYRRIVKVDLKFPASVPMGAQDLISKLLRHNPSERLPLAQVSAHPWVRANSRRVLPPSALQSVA
Write the value in % as a bare number.

In [3]: df
Out[3]:
                              sample_smiles            property_label  readout_units  result_value
0  COc1ccc(C(=O)/C=C/c2cc(OC)c(OC)c(OC)c2)c(O)c1  inhibition at 1 h, 10 µM              %         -23.6
1   COc1ccc(C(=O)/C=C/c2c(OC)cccc2OC)c(O)c1  inhibition at 1 h, 10 µM              %          92.1
2   COc1ccc(O)c(C(=O)/C=C/c2c(OC)cccc2OC)c1  inhibition at 1 h, 10 µM              %           104

**Q:** Look at this molecule and give its reported inhibition at 1 h, 10 µM. COc1cccc(/C=C/C(=O)c2cc(OC)ccc2O)c1
**A:** -15.1

**Q:** Look at this molecule and give its reported inhibition at 1 h, 10 µM. COc1cc(O)c(C(=O)/C=C/c2cc(OC)c(OC)c(OC)c2)cc1OC
**A:** -4.2

**Q:** Look at this molecule and give its reported inhibition at 1 h, 10 µM. COc1cccc(/C=C/C(=O)c2cc(OC)c(OC)cc2O)c1
**A:** -6.8

###

experiment: Selectivity index, ratio of CC50 for human THP1 cells to EC50 for anti-parasitic activity against Leishmania infantum amastigotes infected in human THP1 cells; assay type: toxicity, cell-based; conditions: THP-1 cells, read-out: Ratio CC50/EC50
property.label: selectivity ratio

>>> df
                              sample_smiles  result_value
0  COc1ccc(O)c(C(=O)/C=C/c2cc(OC)c(OC)c(OC)c2)c1           > 1
1  COc1ccc(C(=O)/C=C/c2cc(OC)c(OC)c(OC)c2)c(O)c1         > 1.6

# context switch: different compound, same selectivity ratio
**Q:** Look at this compound and give its reported selectivity ratio. COc1cc(O)c(C(=O)/C=C/c2cc(OC)c(OC)c(OC)c2)cc1OC
**A:** > 2

###

assay: Drug uptake in BALB/c mouse plasma at 20 mg/kg, po measured after 1 hr by LC-MS method; type: ADME, organism-based
property.label: concentration at 1 h (nM)
Write the value in nM as a bare number.

**Q:** Look at this compound and give its reported concentration at 1 h. COc1cccc(/C=C/C(=O)c2cc(OC)c(OC)cc2O)c1
**A:** 9

###

assay: Solubility of the compound in water measured after 18 hrs by UV-vis spectroscopic method; type: physicochemical
property.label: solubility at 18 h (µM)
Write the value in µM as a bare number.

**Q:** Look at this compound and give its reported solubility at 18 h. COc1cccc(/C=C/C(=O)c2cc(OC)c(OC)cc2O)c1
**A:** 0.91

###

List of viability at 10 µM values.
assay: Cytotoxicity against human A549 cells assessed as cell growth at 10 uM by Cell titer-Glo assay relative to control; assay type: cell-based; conditions: read-out: Activity
Write the value in % as a bare number.

Here is how some compounds turned out for viability at 10 µM.
In [3]: df
Out[3]:
                              sample_smiles      property_label  result_value
0       COc1cccc(/C=C/C(=O)c2cc(OC)ccc2O)c1  viability at 10 µM           116
1   COc1ccc(C(=O)/C=C/c2c(OC)cccc2OC)c(O)c1  viability at 10 µM          48.2
2  COc1ccc(C(=O)/C=C/c2ccc(OC)c(OC)c2)c(O)c1  viability at 10 µM          98.8
3           COc1cccc(/C=C/C(=O)c2ccccc2O)c1  viability at 10 µM           105
4  COc1ccc(C(=O)/C=C/c2cc(OC)c(OC)c(OC)c2)c(O)c1  viability at 10 µM           127
5   COc1ccc(O)c(C(=O)/C=C/c2c(OC)cccc2OC)c1  viability at 10 µM           103

# context switch: different compound, same viability at 10 µM
**Q:** Look at this compound and give its reported viability at 10 µM. COc1cccc(/C=C/C(=O)c2ccc(OC)cc2O)c1
**A:** 110

###

biological target: hERG (KCNH2) (Homo sapiens, UniProt Q12809); experiment: Inhibition of human ERG at 10 uM by Tracer Red dye based fluorescence polarization assay relative to control; details: probe Tracer Red dye
Sequence (Q12809 whole entry): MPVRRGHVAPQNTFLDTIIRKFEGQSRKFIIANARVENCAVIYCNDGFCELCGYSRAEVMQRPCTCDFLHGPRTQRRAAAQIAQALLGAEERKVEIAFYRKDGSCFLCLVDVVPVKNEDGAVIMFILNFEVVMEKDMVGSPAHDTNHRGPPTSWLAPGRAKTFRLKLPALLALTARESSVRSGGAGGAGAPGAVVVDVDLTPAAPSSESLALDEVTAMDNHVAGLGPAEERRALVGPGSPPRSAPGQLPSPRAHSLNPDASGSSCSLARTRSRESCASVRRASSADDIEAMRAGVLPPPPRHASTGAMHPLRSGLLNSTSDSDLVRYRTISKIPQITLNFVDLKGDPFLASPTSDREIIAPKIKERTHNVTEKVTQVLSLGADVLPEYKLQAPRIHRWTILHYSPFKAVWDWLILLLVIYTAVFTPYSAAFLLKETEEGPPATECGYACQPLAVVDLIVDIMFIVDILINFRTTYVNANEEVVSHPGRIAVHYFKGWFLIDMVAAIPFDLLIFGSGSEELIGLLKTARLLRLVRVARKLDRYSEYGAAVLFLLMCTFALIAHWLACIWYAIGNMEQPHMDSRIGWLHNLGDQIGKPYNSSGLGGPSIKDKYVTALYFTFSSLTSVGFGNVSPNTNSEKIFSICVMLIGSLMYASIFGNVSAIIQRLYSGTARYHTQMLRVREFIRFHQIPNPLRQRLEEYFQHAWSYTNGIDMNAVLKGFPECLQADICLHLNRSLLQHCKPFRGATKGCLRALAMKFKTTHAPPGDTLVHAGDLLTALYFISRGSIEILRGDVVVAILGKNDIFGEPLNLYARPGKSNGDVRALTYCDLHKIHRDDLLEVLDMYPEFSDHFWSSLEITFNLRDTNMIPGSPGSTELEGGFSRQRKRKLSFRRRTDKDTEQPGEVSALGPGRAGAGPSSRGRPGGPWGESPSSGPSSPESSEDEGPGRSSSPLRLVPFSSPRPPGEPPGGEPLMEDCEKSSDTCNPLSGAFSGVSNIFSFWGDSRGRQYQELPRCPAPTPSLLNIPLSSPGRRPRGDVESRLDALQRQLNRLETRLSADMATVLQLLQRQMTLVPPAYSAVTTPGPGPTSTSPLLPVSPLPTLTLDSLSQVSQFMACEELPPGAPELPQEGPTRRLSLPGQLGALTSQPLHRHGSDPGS
property.label: inhibition at 10 µM (%)
Write the value in % as a bare number.

Here is how some compounds turned out for inhibition at 10 µM.
>>> df
                              sample_smiles                              assay_target  result_value
0  COc1ccc(C(=O)/C=C/c2ccc(OC)c(OC)c2)c(O)c1  hERG (KCNH2) (Homo sapiens, UniProt Q12809)           3.5
1       COc1ccc(/C=C/C(=O)c2ccc(OC)cc2O)cc1  hERG (KCNH2) (Homo sapiens, UniProt Q12809)           2.7
2       COc1cccc(/C=C/C(=O)c2ccc(OC)cc2O)c1  hERG (KCNH2) (Homo sapiens, UniProt Q12809)          13.6
3  COc1cc(O)c(C(=O)/C=C/c2cc(OC)c(OC)c(OC)c2)cc1OC  hERG (KCNH2) (Homo sapiens, UniProt Q12809)           7.1
4   COc1ccc(O)c(C(=O)/C=C/c2c(OC)cccc2OC)c1  hERG (KCNH2) (Homo sapiens, UniProt Q12809)          -7.1

**Q:** Fill in the recorded inhibition at 10 µM for this compound, with hERG (KCNH2) (Homo sapiens, UniProt Q12809) as test system: COc1ccc(C(=O)/C=C/c2c(OC)cccc2OC)c(O)c1
**A:** 18.8

**Q:** Fill in the recorded inhibition at 10 µM for this compound, with hERG (KCNH2) (Homo sapiens, UniProt Q12809) as test system: COc1cccc(/C=C/C(=O)c2ccccc2O)c1
**A:** 11.3

**Q:** Fill in the recorded inhibition at 10 µM for this compound, with hERG (KCNH2) (Homo sapiens, UniProt Q12809) as test system: COc1ccc(O)c(C(=O)/C=C/c2cc(OC)c(OC)c(OC)c2)c1
**A:** 9.5

Where these numbers come from: ChEMBL document CHEMBL3997782
